A collection of compounds and their measured IC50
Biological target: human EP1 receptor (Homo sapiens)
Construct: expressed in transfected cells
Assay: Antagonist activity (SRE-Luciferase reporter activity) using cells expressing human EP1 receptor
Assay type: cell-based
Conditions: HEK293 cells stably expressing human EP1 receptor with SRE-Luciferase reporter; PGE2 final concentration 10 nM; 37° C. for 6 hours; read-out: IC50 value, antagonist activity measurement test using the cells expressing human EP1 receptor

Before answering, review these 5 worked examples.
O=C(O)c1csc(-n2nc3c(c2-c2ccccc2)CCc2ccccc2-3)n1 :: ≤ 100 nM
Cc1c(-c2ccccc2)nn(-c2nc(C(=O)O)cs2)c1-c1cccs1 :: 100 to 300 nM
Cc1c(-c2ccccc2)nn(-c2nc(C(=O)O)cs2)c1-c1cc(F)ccc1F :: 100 to 300 nM
O=C(O)c1csc(-n2nc(-c3ccccc3O)cc2-c2ccccc2)n1 :: 100 to 300 nM
O=C(O)c1csc(-n2nc(-c3ccccc3)c3c2-c2ccccc2C3)n1 :: ≤ 100 nM

Switching to the query record.
Quick note, IC50 for "O=C(O)c1csc(-n2nc(-c3ccccc3)c(Br)c2-c2ccccc2)n1" landed at ≤ 100 nM

###

Biological target: human EP1 receptor (Homo sapiens)
Construct: expressed in transfected cells
Sequence (P34995 1-402): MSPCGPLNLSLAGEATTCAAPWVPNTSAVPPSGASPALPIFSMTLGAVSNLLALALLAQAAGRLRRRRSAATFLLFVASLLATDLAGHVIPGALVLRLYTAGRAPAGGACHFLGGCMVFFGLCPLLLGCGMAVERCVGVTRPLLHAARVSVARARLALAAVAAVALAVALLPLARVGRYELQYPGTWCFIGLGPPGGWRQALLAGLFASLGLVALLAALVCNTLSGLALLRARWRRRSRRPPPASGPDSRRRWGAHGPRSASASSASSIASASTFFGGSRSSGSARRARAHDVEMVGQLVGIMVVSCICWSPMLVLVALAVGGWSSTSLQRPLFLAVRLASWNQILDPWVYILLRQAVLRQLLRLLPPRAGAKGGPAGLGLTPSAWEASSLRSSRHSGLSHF
Assay: Antagonist activity (SRE-Luciferase reporter activity) using cells expressing human EP1 receptor
Format: cell-based
Settings: HEK293 cells stably expressing human EP1 receptor with SRE-Luciferase reporter; PGE2 final concentration 10 nM; 37° C. for 6 hours; read-out: IC50 value, antagonist activity measurement test using the cells expressing human EP1 receptor
pIC50: −log10 of the molar value.
Quick list: pIC50 per entry.

Consider the worked cases shown below.
Cc1c(-c2ccccc2)nn(-c2nc(C(=O)O)cs2)c1-c1cccc2cccnc12 :: ≥ 7.00
Nc1c(-c2ccccc2)nn(-c2nc(C(=O)O)cs2)c1-c1ccccc1 :: ≥ 7.00
Cc1c(-c2ccccc2)nn(-c2nc(C(=O)O)cs2)c1-c1ccc(F)cc1 :: ≥ 7.00
Cc1c(-c2ccccc2)nn(/C=C\c2nc(C(=O)O)cs2)c1-c1ccccc1 :: 6.00 to 6.52

response.value for "O=C(O)c1csc(-n2nc(-c3ccccc3)c(F)c2-c2ccccc2)n1" (field: pIC50) = ≥ 7.00

The reported numbers originate from patent US7960392B2.
